Attribution: patent US20050032873A1

Reported Emax values for a set of compounds
# assayed target: 5-HT1A receptor (Homo sapiens)
# Sequence (P08908 whole entry): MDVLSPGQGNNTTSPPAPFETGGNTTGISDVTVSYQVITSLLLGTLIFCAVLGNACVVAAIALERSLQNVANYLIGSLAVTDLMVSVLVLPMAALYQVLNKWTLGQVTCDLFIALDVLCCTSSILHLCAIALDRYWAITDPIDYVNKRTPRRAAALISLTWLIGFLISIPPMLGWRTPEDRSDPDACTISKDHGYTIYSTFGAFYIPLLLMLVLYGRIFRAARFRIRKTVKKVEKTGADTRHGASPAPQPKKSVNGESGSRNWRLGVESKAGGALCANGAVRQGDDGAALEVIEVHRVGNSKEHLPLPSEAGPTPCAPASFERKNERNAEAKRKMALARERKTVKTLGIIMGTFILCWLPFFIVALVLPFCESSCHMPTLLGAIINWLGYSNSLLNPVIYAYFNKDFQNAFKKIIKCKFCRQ
# measurement protocol: cAMP accumulation assay, 5-HT1A function
# Format: cell-based
# conditions used: in brackets after EC50 or IC50; read-out: 5-HT1A Function cAMP (Emax)
// units = %; emit number, no label

In: # lookup: Emax of CCCN(CCc1c[nH]c2ccc(F)cc12)C1CCc2cccc(OC)c2C1 (stereo not shown)
Out: 89

In: Quick one: Emax for CCCN(CCCc1c[nH]c2ccc(F)cc12)[C@@H]1COc2c(F)ccc(OC)c2C1 ?
Out: 88.5

In: Sample C[C@@H](CCN(C1CCC1)[C@H]1COc2c(F)ccc(C(N)=O)c2C1)c1c[nH]c2ccc(F)cc12 [Compound 153a] — what was its Emax?
Out: 0

In: What measured Emax goes with O=C(NC1CCC1)c1ccc(F)c2c1CC(N(CCCc1c[nH]c3ccc(F)cc13)C1CCC1)CO2 (stereo not shown) ?
Out: 0

In: What does the data say about its Emax? Entry: COc1cccc2c1CC(N(CCCc1c[nH]c3ccc(F)cc13)C1CCC1)CO2 (stereo not shown)
Out: 37

New cases:
In: # query: Emax of entry NC(=O)c1ccc(F)c2c1OCC(N(CCCc1c[nH]c3c(F)cc(F)cc13)CC1CC1)C2 (stereo not shown)
Out: 72

In: So what's the measured Emax for this one? NC(=O)c1ccc(F)c2c1CC(NCCCc1c[nH]c3ccc(F)cc13)CO2 (stereo not shown) [Compound 1]
Out: 79.5
